- Target Entity: human full-length MKNK1 (Homo sapiens, UniProt Q9BUB5, T385D)
- Construct: GST (N)
- Sequence (Q9BUB5 1-424 isoform Q9BUB5-2 T344D): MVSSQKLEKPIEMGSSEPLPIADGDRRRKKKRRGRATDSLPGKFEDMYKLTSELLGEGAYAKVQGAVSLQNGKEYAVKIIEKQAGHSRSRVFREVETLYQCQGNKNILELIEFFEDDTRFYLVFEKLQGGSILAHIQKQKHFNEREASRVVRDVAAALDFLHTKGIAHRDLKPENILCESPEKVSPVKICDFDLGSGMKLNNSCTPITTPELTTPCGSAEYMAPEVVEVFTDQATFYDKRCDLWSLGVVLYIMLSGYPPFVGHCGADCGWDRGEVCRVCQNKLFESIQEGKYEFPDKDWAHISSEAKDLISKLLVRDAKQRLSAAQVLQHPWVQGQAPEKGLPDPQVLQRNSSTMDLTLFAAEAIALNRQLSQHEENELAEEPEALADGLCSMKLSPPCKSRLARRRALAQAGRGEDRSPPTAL
- Test: MKNK1 kinase high ATP assay (TR-FRET)
- Measurement Conditions: high ATP (2 mM final), 15 min preincubation with enzyme, GST-MKNK1 (T344D)
Measure Name: IC50 (nM)

Consider the following illustrative entries.
• O=C(c1cc2c(Nc3ccc4[nH]c(=O)sc4c3)ncnc2[nH]1)N1CCCCC1 = 14
• COc1cc2[nH]c(=O)sc2cc1Nc1ncnc2[nH]cc(F)c12 = 1
• O=c1[nH]c2ccc(Nc3ncnc4[nH]cc(Br)c34)cc2s1 = 6
• O=c1[nH]c2ccc(Nc3ncnc4[nH]c(S(=O)(=O)c5ccc(Cl)cc5)cc34)cc2s1 = 12
• O=C(O)c1cc2c(Nc3ccc4[nH]c(=O)sc4c3)ncnc2[nH]1 = 36

P = CCOC(=O)c1cc2c(Nc3ccc4[nH]c(=O)sc4c3)ncnc2[nH]1
Q = CN(C)C(=O)c1c[nH]c2ncnc(Nc3ccc4[nH]c(=O)sc4c3)c12
Exam item: When their IC50 values are compared, which is larger, P or Q ? Write down the label attached to your selection.
Marked response: Q

1 = CCc1[nH]c2ncnc(Nc3ccc4[nH]c(=O)sc4c3)c2c1C
2 = CCCc1[nH]c2ncnc(Nc3cc4sc(=O)[nH]c4cc3OC)c2c1CC
Exam item: Which entry shows the lesser value of IC50 here, 1 or 2 ? Select an item and report its label.
Marked response: 2
(2: 5 nM, 1: 27 nM)

A = O=C(c1[nH]c2ncnc(Nc3ccc4[nH]c(=O)sc4c3)c2c1Br)N1CCCCC1
B = O=c1[nH]c2ccc(Nc3ncnc4[nH]cnc34)cc2s1
Exam item: So which one has the bigger IC50 here, A or B ? Answer = label.
Marked response: A
(A: 24 nM, B: 11 nM)

a = CC(C)NC(=O)c1c[nH]c2ncnc(Nc3ccc4[nH]c(=O)sc4c3)c12
b = N#Cc1c[nH]c2ncnc(Nc3ccc4[nH]c(=O)sc4c3)c12
c = C[C@@H]1COCCN1C(=O)c1cc2c(Nc3ccc4[nH]c(=O)sc4c3)ncnc2[nH]1
d = O=c1[nH]c2ccc(Nc3ncnc4[nH]c(CCCO)cc34)cc2s1
Exam item: Rank ascending by IC50. Answer by naming the labels in the order asked.
Marked response: a, d, b, c
(a: 4 nM, d: 9 nM, b: 13 nM, c: 39 nM)
